Recorded Dmax for the following compounds
Target: HiBit-BRG1 fusion protein (Homo sapiens, UniProt P51532)
Construct: expressed in transfected cells
Sequence (P51532 whole entry, the tested form may be a part): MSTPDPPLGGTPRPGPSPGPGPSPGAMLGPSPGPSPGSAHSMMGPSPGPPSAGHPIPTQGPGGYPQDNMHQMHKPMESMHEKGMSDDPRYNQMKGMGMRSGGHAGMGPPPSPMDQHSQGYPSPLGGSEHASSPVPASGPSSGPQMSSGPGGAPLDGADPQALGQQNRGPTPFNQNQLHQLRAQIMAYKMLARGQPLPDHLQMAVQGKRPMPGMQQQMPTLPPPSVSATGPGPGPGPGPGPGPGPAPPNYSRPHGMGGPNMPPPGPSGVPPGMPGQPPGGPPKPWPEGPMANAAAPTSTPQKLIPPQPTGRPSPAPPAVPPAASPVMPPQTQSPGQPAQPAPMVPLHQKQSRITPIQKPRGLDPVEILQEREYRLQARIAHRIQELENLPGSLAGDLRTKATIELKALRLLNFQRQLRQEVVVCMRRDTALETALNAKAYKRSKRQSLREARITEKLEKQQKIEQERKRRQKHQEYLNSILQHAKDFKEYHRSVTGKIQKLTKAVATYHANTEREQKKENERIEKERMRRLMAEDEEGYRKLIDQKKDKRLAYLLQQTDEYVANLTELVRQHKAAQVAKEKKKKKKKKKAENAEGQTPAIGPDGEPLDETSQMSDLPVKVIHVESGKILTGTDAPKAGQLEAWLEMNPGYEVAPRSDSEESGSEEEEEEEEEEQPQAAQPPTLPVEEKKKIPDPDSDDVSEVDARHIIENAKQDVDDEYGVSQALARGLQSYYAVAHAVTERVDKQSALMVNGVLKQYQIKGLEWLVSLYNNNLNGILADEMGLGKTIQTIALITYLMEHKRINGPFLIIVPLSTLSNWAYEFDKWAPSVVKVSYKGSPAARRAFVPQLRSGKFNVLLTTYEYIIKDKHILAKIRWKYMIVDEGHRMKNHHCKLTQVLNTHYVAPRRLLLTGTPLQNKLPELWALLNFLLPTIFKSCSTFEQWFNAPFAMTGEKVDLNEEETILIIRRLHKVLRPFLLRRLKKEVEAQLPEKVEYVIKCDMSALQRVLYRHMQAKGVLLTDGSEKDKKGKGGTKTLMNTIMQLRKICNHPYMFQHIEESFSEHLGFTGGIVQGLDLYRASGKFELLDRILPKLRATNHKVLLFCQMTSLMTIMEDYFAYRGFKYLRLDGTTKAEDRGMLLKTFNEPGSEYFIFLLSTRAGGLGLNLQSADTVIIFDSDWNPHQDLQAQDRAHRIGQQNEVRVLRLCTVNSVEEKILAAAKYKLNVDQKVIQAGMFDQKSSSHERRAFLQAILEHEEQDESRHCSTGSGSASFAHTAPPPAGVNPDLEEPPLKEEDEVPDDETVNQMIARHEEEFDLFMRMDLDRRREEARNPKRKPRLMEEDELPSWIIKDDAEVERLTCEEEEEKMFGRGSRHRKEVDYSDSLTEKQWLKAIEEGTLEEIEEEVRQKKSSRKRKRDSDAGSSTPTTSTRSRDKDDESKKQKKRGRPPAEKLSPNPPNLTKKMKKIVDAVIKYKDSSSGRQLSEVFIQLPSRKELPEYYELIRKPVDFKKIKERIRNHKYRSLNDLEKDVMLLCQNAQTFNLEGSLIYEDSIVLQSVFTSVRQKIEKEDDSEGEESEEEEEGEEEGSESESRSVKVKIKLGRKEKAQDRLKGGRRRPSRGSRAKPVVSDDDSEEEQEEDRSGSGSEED
Experiment: HiBiT-BRG1 cell-based degradation assay (Nano-Glo HiBiT Lytic Detection, 24 h)
Conditions: stable HeLa cell line expressing HiBit-BRG1 and LgBit, read-out: BRG1 HiBit Degradation Maximum (%)

[[record]]
compound = "Cc1ncsc1-c1ccc([C@H](C)NC(=O)[C@@H]2C[C@@H](O)CN2C(=O)[C@@H](c2cc(N3CCC4(CCC(c5sc6nnc(-c7ccccc7O)cc6c5C)CC4)CC3)no2)C(C)C)cc1"
study_system = "HiBit-BRG1 fusion protein (Homo sapiens, UniProt P51532)"
property = "Dmax"
result = "< 50%"

[[record]]
compound = "Cc1ncsc1-c1ccc([C@H](C)NC(=O)[C@@H]2C[C@@H](O)CN2C(=O)[C@@H](c2cc(-c3cnc(N4CCN(c5sc6nnc(-c7ccccc7O)cc6c5C)CC4)nc3)no2)C(C)C)cc1"
study_system = "HiBit-BRG1 fusion protein (Homo sapiens, UniProt P51532)"
property = "Dmax"
result = "> 75%"


I have this compound here, Cc1ncsc1-c1ccc([C@H](C)NC(=O)[C@@H]2C[C@@H](O)CN2C(=O)[C@@H](c2cc(-c3cnc(N4CCC(c5cc6cc(-c7ccccc7O)nnc6s5)CC4)nc3)no2)C(C)C)cc1 , and I need its recorded Dmax.
< 50%

I am curious: what Dmax value has been reported for Cc1ncsc1-c1ccc([C@H](C)NC(=O)[C@@H]2C[C@@H](O)CN2C(=O)[C@@H](c2cc(N3CC4(CCC(c5sc6nnc(-c7ccccc7O)cc6c5C)CC4)C3)no2)C(C)C)cc1 ?
> 75%

====

Molecular target: HiBit-BRG1 fusion protein (Homo sapiens, UniProt P51532)
Construct: expressed in transfected cells
Assay: HiBiT-BRG1 cell-based degradation assay (Nano-Glo HiBiT Lytic Detection, 24 h)
Conditions: stable HeLa cell line expressing HiBit-BRG1 and LgBit, read-out: BRMG1 HiBit Degradation IC50
property: DC50

[[record]]
compound = "Cc1ncsc1-c1ccc([C@H](C)NC(=O)[C@@H]2C[C@@H](O)CN2C(=O)[C@@H](c2cc(-c3ncc(N4CCC(c5sc6nnc(-c7ccccc7O)cc6c5C)CC4)cn3)no2)C(C)C)cc1 [Compound 36]"
result = "> 1 µM"

[[record]]
compound = "Cc1ncsc1-c1ccc([C@H](C)NC(=O)[C@@H]2C[C@@H](O)CN2C(=O)[C@@H](c2cc(-c3ccc(N4CC(c5cc6cc(-c7ccccc7O)nnc6s5)C4)nn3)no2)C(C)C)cc1 [Compound 24]"
result = "> 0.1 µM"

[[record]]
compound = "Cc1ncsc1-c1ccc([C@H](C)NC(=O)[C@@H]2C[C@@H](O)CN2C(=O)[C@@H](c2cc(C3CCN(c4cnc(N5CCC(c6sc7nnc(-c8ccccc8O)cc7c6C)CC5)nc4)CC3)no2)C(C)C)cc1 [Compound 100]"
result = "> 0.01 µM"


Given the entry Cc1ncsc1-c1ccc([C@H](C)NC(=O)[C@@H]2C[C@@H](O)CN2C(=O)[C@@H](c2cc(-c3cnc(N4CC[C@H](c5sc6nnc(-c7ccccc7O)cc6c5C)C4)nc3)no2)C(C)C)cc1 [Compound 41] , report its measured DC50.
> 1 µM

====

Biological target: HiBit-BRG1 fusion protein (Homo sapiens, UniProt P51532)
Construct: expressed in transfected cells
Experiment: HiBiT-BRG1 cell-based degradation assay (Nano-Glo HiBiT Lytic Detection, 24 h)
Conditions: stable HeLa cell line expressing HiBit-BRG1 and LgBit, read-out: BRG1 HiBit Degradation Maximum (%)
property: Dmax

[[record]]
smiles_repr = "Cc1ncsc1-c1ccc([C@H](C)NC(=O)[C@@H]2C[C@@H](O)CN2C(=O)[C@@H](c2cc(-c3ccc(N4CCC(c5sc6nnc(-c7ccccc7O)cc6c5C)CC4)nn3)no2)C(C)C)cc1"
study_system = "HiBit-BRG1 fusion protein (Homo sapiens, UniProt P51532)"
result = "< 50%"


Quick check: Dmax of Cc1ncsc1-c1ccc([C@H](C)NC(=O)[C@@H]2C[C@@H](O)CN2C(=O)[C@@H](c2cc(-c3cnc(N4CC[C@@H](c5sc6nnc(-c7ccccc7O)cc6c5C)[C@H](C)C4)nc3)no2)C(C)C)cc1 ?
< 50%

Which measured Dmax value corresponds to Cc1nc(N2CCC(c3sc4nnc(-c5ccccc5O)cc4c3C)CC2)ncc1-c1cc([C@H](C(=O)N2C[C@H](O)C[C@H]2C(=O)N[C@@H](C)c2ccc(-c3scnc3C)cc2)C(C)C)on1 ?
> 50%

Consider the molecule shown here: Cc1ncsc1-c1ccc([C@H](C)NC(=O)[C@@H]2C[C@@H](O)CN2C(=O)[C@@H](c2cc(-c3ccc(N4CCC(c5sc6nnc(-c7ccccc7O)cc6c5C)CC4)c(F)c3)no2)C(C)C)cc1 What is its recorded Dmax?
< 50%

Param item = Cc1nc(N2CCC(c3sc4nnc(-c5ccccc5O)cc4c3C)CC2)ccc1-c1cc([C@H](C(=O)N2C[C@H](O)C[C@H]2C(=O)N[C@@H](C)c2ccc(-c3scnc3C)cc2)C(C)C)on1 ; retrieve measured Dmax.
> 50%

====

Below: a set of entries, each annotated with reported DC50.
Biological target: HiBit-BRG1 fusion protein (Homo sapiens, UniProt P51532)
Construct: expressed in transfected cells
Assay: HiBiT-BRG1 cell-based degradation assay (Nano-Glo HiBiT Lytic Detection, 24 h)
Conditions: stable HeLa cell line expressing HiBit-BRG1 and LgBit, read-out: BRMG1 HiBit Degradation IC50

[[record]]
smiles_repr = "Cc1ncsc1-c1ccc([C@H](C)NC(=O)[C@@H]2C[C@@H](O)CN2C(=O)[C@@H](c2cc(-c3cnc(N4CC5(CC(c6cc7nnc(-c8ccccc8O)cc7s6)C5)C4)nc3)no2)C(C)C)cc1"
result = "> 10 nM"

[[record]]
smiles_repr = "Cc1ncsc1-c1ccc([C@H](C)NC(=O)[C@@H]2C[C@@H](O)CN2C(=O)[C@@H](c2cc(-c3cnc(N4CC[C@@H](c5cc6nnc(-c7ccccc7O)cc6s5)C4)nc3)no2)C(C)C)cc1"
result = "> 10 nM"

[[record]]
smiles_repr = "Cc1ncsc1-c1ccc([C@H](C)NC(=O)[C@@H]2C[C@@H](O)CN2C(=O)[C@@H](c2cc(-c3cnc(N4C[C@H]5C[C@@H](C4)[C@@H]5c4cc5cc(-c6ccccc6O)nnc5s4)nc3)no2)C(C)C)cc1"
result = "> 1000 nM"

[[record]]
smiles_repr = "Cc1ncsc1-c1ccc([C@H](C)NC(=O)[C@@H]2C[C@@H](O)CN2C(=O)[C@@H](c2cc(-c3ccc(N4CCC(c5sc6nnc(-c7ccccc7O)cc6c5C)CC4)cc3)no2)C(C)C)cc1"
result = "> 1000 nM"


// switching to the query compound
I would be grateful if you could share the reported DC50 for Cc1ncsc1-c1ccc([C@H](C)NC(=O)[C@@H]2C[C@@H](O)CN2C(=O)[C@@H](c2cc(N3CCC4(CC3)CC(c3sc5nnc(-c6ccccc6O)cc5c3C)C4)no2)C(C)C)cc1 .
> 1000 nM

====

Biological target: HiBit-BRM fusion protein (Homo sapiens, UniProt P51531)
Construct: expressed in transfected cells
Sequence (P51531 whole entry, the tested form may be a part): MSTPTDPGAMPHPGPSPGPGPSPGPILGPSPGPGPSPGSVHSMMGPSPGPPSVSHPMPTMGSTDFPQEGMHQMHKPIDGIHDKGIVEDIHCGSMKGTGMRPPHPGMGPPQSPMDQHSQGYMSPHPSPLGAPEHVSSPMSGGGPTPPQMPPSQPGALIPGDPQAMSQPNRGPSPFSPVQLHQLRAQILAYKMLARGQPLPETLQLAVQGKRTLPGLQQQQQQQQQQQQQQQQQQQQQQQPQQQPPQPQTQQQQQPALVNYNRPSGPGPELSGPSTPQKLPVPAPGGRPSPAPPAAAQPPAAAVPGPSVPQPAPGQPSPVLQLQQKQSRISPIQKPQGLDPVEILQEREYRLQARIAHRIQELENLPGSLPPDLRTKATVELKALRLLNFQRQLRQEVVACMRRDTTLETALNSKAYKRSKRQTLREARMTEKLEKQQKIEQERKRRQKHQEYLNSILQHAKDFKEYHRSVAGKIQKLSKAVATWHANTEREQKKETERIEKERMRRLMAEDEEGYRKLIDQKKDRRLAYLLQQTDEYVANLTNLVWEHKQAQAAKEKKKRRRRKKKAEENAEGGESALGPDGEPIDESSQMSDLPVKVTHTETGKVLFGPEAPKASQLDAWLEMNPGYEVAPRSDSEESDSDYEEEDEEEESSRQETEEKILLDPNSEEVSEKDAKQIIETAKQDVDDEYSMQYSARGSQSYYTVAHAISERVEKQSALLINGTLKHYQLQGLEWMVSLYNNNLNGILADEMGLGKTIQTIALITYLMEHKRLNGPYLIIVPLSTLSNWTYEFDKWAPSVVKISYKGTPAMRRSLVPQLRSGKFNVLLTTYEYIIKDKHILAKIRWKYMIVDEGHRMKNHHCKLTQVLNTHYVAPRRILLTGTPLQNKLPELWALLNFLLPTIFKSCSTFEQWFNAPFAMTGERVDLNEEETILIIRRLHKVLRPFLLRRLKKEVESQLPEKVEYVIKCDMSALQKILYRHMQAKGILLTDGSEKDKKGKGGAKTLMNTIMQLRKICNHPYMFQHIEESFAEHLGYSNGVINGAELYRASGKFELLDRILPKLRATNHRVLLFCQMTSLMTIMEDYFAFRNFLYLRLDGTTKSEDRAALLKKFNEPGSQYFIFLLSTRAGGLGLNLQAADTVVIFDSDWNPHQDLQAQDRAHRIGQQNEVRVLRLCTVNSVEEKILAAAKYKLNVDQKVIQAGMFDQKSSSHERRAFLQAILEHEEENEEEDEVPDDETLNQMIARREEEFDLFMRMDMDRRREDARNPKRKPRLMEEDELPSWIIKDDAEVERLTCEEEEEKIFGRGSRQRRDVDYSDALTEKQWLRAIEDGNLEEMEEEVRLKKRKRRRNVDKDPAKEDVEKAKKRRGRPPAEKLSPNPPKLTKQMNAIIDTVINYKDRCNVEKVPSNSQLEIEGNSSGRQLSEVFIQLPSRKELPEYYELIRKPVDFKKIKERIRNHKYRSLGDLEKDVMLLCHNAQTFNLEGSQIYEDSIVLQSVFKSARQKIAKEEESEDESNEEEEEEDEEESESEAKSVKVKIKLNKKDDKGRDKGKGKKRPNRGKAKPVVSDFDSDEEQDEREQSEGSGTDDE
Assay: HiBiT-BRM cell-based degradation assay (Nano-Glo HiBiT Lytic Detection, 24 h)
Settings: stable HeLa cell line expressing HiBiT-BRM, read-out: BRM HiBit Degradation IC50
property: DC50

Given the molecule Cc1ncsc1-c1ccc([C@H](C)NC(=O)[C@@H]2C[C@@H](O)CN2C(=O)C(c2cc([C@H]3CC[C@H](c4cnc(N5CCC(c6sc7nnc(-c8ccccc8O)cc7c6C)CC5)nc4)CC3)no2)C(C)C)cc1 (stereo partly drawn) , what is its reported DC50?
< 10 nM

I'd like to know its DC50. The molecule in question is Cc1ncsc1-c1ccc([C@H](C)NC(=O)[C@@H]2C[C@@H](O)CN2C(=O)[C@@H](c2cc(-c3ccnc(N4CCC(c5sc6nnc(-c7ccccc7O)cc6c5C)CC4)n3)no2)C(C)C)cc1
< 10 nM

Look at this molecule and give its reported DC50. Cc1ncsc1-c1ccc([C@H](C)NC(=O)[C@@H]2C[C@@H](O)CN2C(=O)[C@@H](c2cc(N3CC[C@H](c4cc5nnc(-c6ccccc6O)cc5s4)C3)no2)C(C)C)cc1
< 10 nM

GET /values?readout=DC50&item= Cc1ncsc1-c1ccc([C@H](C)NC(=O)[C@@H]2C[C@@H](O)CN2C(=O)[C@@H](c2cc(-c3cnc(NC45CC(c6sc7nnc(-c8ccccc8O)cc7c6C)(C4)C5)nc3)no2)C(C)C)cc1
< 10 nM

Consider the molecule Cc1nc(N2CCC(c3sc4nnc(-c5ccccc5O)cc4c3C)CC2)ncc1-c1cc([C@H](C(=O)N2C[C@H](O)C[C@H]2C(=O)N[C@@H](C)c2ccc(-c3scnc3C)cc2)C(C)C)on1 and give its measured DC50.
< 10 nM

# DC50 lookup, item Cc1nc(N2CCC(c3sc4nnc(-c5ccccc5O)cc4c3C)CC2)ccc1-c1cc([C@H](C(=O)N2C[C@H](O)C[C@H]2C(=O)N[C@@H](C)c2ccc(-c3scnc3C)cc2)C(C)C)on1
< 10 nM

# query: DC50 of entry Cc1cc(-c2cc([C@H](C(=O)N3C[C@H](O)C[C@H]3C(=O)N[C@@H](C)c3ccc(-c4scnc4C)cc3)C(C)C)on2)ccc1N1CCC(c2sc3nnc(-c4ccccc4O)cc3c2C)CC1 (single isomer, unassigned)
> 10 nM

# get_value(readout='DC50', item= Cc1ncsc1-c1ccc([C@H](C)NC(=O)[C@@H]2C[C@@H](O)CN2C(=O)[C@@H](c2cc(-c3ccc(N4CCC(c5sc6nnc(-c7ccccc7O)cc6c5C)CC4)cn3)no2)C(C)C)cc1 )
< 10 nM

Name the recorded DC50 for Cc1ncsc1-c1ccc([C@H](C)NC(=O)[C@@H]2C[C@@H](O)CN2C(=O)[C@@H](c2cc(-c3cnc(N4CCN(c5cc6nnc(-c7ccccc7O)cc6s5)CC4)nc3)no2)C(C)C)cc1 .
< 10 nM

All figures here come from patent US20250304596A1.
